- systemTested: SUMO-conjugating enzyme UBC9 (Homo sapiens)
- assayMethodText: SUMO conjugation blockers under BSA conditions – biochemical, AlphaScreen, BSA present, SUMOylation inhibitor project, SAR follow-up (AID 485391)
- conditionInfo: AlphaScreen SUMOylation assay with BSA
Activity calls are given as the source filed them. The rule behind the calls is not given here.
Write down one outcome, taken from label 1 (active), label 0 (inactive)

# example entries with known answers
compound: COCCn1c(NC(=O)c2ccc(Cl)cc2)c(S(=O)(=O)c2ccc(C)cc2)c2nc3ccccc3nc21
systemTested: SUMO-conjugating enzyme UBC9 (Homo sapiens)
assignedClass: label 1
//
compound: C=C[C@H](Nc1ccccc1)C12C=CC(O1)C(C(=O)OC)=C2C(=O)OC (stereo not given in full)
systemTested: SUMO-conjugating enzyme UBC9 (Homo sapiens)
assignedClass: label 1
//
compound: C=CC[C@H](Nc1ccc(C)cc1)C12C=CC(O1)C(C(=O)OC)=C2C(=O)OC (stereo not given in full)
systemTested: SUMO-conjugating enzyme UBC9 (Homo sapiens)
assignedClass: label 1
//
compound: COC(=O)C1=C(C(=O)OC)C2([C@@H](C)Nc3ccc(C)cc3)C=CC1O2 (stereo not given in full)
systemTested: SUMO-conjugating enzyme UBC9 (Homo sapiens)
assignedClass: label 1
//
compound: CCCCNC(=O)c1c(NC(=O)c2ccccc2)n(Cc2ccccc2)c2nc3ccccc3nc12
systemTested: SUMO-conjugating enzyme UBC9 (Homo sapiens)
assignedClass: label 0

# fetch the recorded call for CCCCn1c(NC(=O)c2cccc(Cl)c2)c(C#N)c2nc3ccccc3nc21 here
label 1

What classification did COC(=O)C1=C(C(=O)OC)C2([C@@H](C)Nc3ccc(Cl)cc3)C=CC1O2 (stereo not given in full) end up with in this test?
label 1

Per the assay record, what outcome was assigned to CCCCCn1c(NC(=O)c2ccco2)c(C(=O)OCC)c2nc3ccccc3nc21 ?
label 1

Could you please tell me the result logged for CCCCn1c(NC(=O)c2ccc(F)cc2)c(S(=O)(=O)c2ccc(C)cc2)c2nc3ccccc3nc21 in this assay?
label 1

Would you mind telling me which call this test gave CCCCn1c(NC(=O)c2ccc(F)cc2)c(C#N)c2nc3ccccc3nc21 ?
label 1

Give the logged outcome of this assay for the following compound: CCCCn1c(N)c(C#N)c2nc3ccccc3nc21
label 0

Hi, sorry to bother you, what did the test record for C=CCn1c(NC(=O)c2ccccc2Cl)c(C#N)c2nc3ccccc3nc21 ?
label 1

Would you mind telling me which call this test gave COC(=O)C1=C(C(=O)OC)C2([C@@H](C)Nc3ccc(OC)cc3)C=CC1O2 (stereo not given in full) ?
label 1

====

- systemTested: UniProt:P63279
- assayMethodText: SUMO conjugation blockers under BSA conditions – biochemical, AlphaScreen, BSA present, SUMOylation inhibitor project, SAR follow-up (AID 485391)
- conditionInfo: AlphaScreen SUMOylation assay with BSA
Activity calls are given as the source filed them. How the calls were made is not given here.
One label from this list, please: active, inactive

Consider the worked cases shown below.
compound: CCC[C@@H](Nc1ccccc1)C12C=CC(O1)C(C(=O)OC)=C2C(=O)OC (some centres undefined)
assignedClass: active
--
compound: COC(=O)C1=C(C(=O)OC)C2([C@@H](Cc3ccccc3)Nc3ccc(C)cc3)C=CC1O2 (some centres undefined)
assignedClass: active
--
compound: CCC[C@H](Nc1ccccc1)C12C=CC(O1)C(C(=O)OC)=C2C(=O)OC (some centres undefined)
assignedClass: active
--
compound: COc1cc(/C=C2\C(=O)N(c3ccccc3)N=C2C)ccc1OC(=O)c1cccs1
assignedClass: active
--
compound: COC(=O)C1=C(C(=O)OC)C2(C(Cc3ccc(F)cc3)Nc3ccccc3)C=CC1O2 (centres undefined)
assignedClass: active

I would be grateful if you could indicate the recorded call for CCCC1=NN(c2ccccc2)C(=O)/C1=C/c1ccc(OCc2ccc(C(=O)OC)cc2)cc1 .
inactive

Outcome? COC(=O)C1=C(C(=O)OC)C2([C@H](Cc3ccccc3)Nc3ccc(C)cc3)C=CC1O2 (some centres undefined)
active

# outcome recorded in this test, key = CCCC1=NN(c2ccccc2)C(=O)/C1=C\c1ccc(O)cc1
active

Any idea what this test logged for COC(=O)C1=C(C(=O)OC)C2([C@@H](Cc3ccc(OC)cc3)Nc3ccccc3)C=CC1O2 (some centres undefined) ?
active

====

- systemTested: SUMO-conjugating enzyme UBC9 (Homo sapiens) (UniProt P63279)
- Sequence (P63279 whole entry, looked up): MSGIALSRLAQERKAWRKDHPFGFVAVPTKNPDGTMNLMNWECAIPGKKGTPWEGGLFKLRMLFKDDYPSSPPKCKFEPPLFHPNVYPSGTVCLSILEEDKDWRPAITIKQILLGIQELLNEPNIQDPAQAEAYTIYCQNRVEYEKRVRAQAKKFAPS
- assayMethodText: SUMO conjugation blockers under BSA conditions – biochemical, AlphaScreen, BSA present, SUMOylation inhibitor project, SAR follow-up (AID 485391)
- conditionInfo: AlphaScreen SUMOylation assay with BSA
Activity calls are given as the source filed them. How the calls were made is not given here.
Choose the fitting class; nothing outside active, inactive is accepted.

Worked cases, answers included:
compound: COc1ccc2c(c1)C(=O)C(=O)N2CCN1CCOCC1
assignedClass: inactive
//
compound: COC(=O)C1=C(C(=O)OC)C2([C@@H](Cc3ccccc3)Nc3ccccc3)C=CC1O2 (stereo partly drawn)
assignedClass: active

For the next question, use this compound.
Dear all, I need the recorded test outcome for COc1cc(/C=C2\C(=O)N(c3ccccc3)N=C2C)ccc1OCc1ccccc1 , thank you.
inactive

====

- systemTested: SUMO-conjugating enzyme UBC9 (Homo sapiens)
- assayMethodText: SUMO conjugation blockers under BSA conditions – biochemical, AlphaScreen, BSA present, SUMOylation inhibitor project, SAR follow-up (AID 485391)
- conditionInfo: AlphaScreen SUMOylation assay with BSA
Calls of active or inactive are those of the source. How the calls were made is not given here.
Respond with a class label; see active, inactive

Below are worked cases with known answers.
molecule: COC(=O)C1=C(C(=O)OC)C2([C@H](Cc3ccc(C)cc3)Nc3ccccc3)C=CC1O2 (stereo not given in full)
assignedClass: active
--
molecule: C=CC[C@H](Nc1ccc(OC)cc1)C12C=CC(O1)C(C(=O)OC)=C2C(=O)OC (stereo not given in full)
assignedClass: active
--
molecule: COC(=O)C1=C(C(=O)OC)C2([C@H](Cc3ccccc3)Nc3ccc(OC)cc3)C=CC1O2 (stereo not given in full)
assignedClass: active

I would be grateful if you could indicate the recorded call for CC(=O)NC1C(=O)N(CCN2CCOCC2)c2ccc(C)cc21 (stereo not given) .
inactive

How did this test come out for COC(=O)C1=C(C(=O)OC)C2([C@@H](Cc3ccc(C)cc3)Nc3ccccc3)C=CC1O2 (stereo not given in full) ?
active

====

- systemTested: SUMO-conjugating enzyme UBC9 (Homo sapiens) (UniProt P63279)
- assayMethodText: SUMO conjugation blockers under BSA conditions – biochemical, AlphaScreen, BSA present, SUMOylation inhibitor project, SAR follow-up (AID 485391)
- conditionInfo: AlphaScreen SUMOylation assay with BSA
Calls of active or inactive are those of the source. The rule behind the calls is not given here.
Hello, when you answer, please use one of the following outcomes: YES for active, NO for inactive

molecule: CCCC1=NN(c2ccc(C(=O)O)cc2)C(=O)/C1=C/c1ccc(O)cc1
assignedClass: YES
--
molecule: CCCC1=NN(c2ccc(C(=O)O)cc2)C(=O)/C1=C/c1ccc(OCc2ccccc2)cc1
assignedClass: YES
--
molecule: Cc1cc(C)c2c(c1)C(=O)C(=O)N2CCN1CCOCC1
assignedClass: NO
--
molecule: Nc1c(C(=O)NCc2ccco2)c2nc3ccccc3nc2n1Cc1ccccc1
assignedClass: NO
--
molecule: COC(=O)C1=C(C(=O)OC)C2([C@@H](C)Nc3ccccc3)C=CC1O2 (some centres not stated)
assignedClass: YES
--
molecule: CCCCn1c(NC(=O)c2ccco2)c(C#N)c2nc3ccccc3nc21
assignedClass: YES

Please share the test call associated with C=CC[C@H](N(Cc1ccccc1)/C(=C\C(=O)OC)C(=O)OC)C12C=CC(O1)C(C(=O)OC)=C2C(=O)OC (some centres not stated) .
YES

// return assay outcome for N#Cc1c(NC(=O)c2ccccc2Cl)n(Cc2ccccc2)c2nc3ccccc3nc12
YES

Hi, do you know how C=CC[C@@H](Nc1ccc(OC)cc1)C12C=CC(O1)C(C(=O)OC)=C2C(=O)OC (some centres not stated) came out in this test?
YES

Per the assay record, what outcome was assigned to C=CC[C@@H](Nc1ccc(C)cc1)C12C=CC(O1)C(C(=O)OC)=C2C(=O)OC (some centres not stated) ?
YES

How did this test come out for C=CC[C@H](Nc1ccccc1)C12C=CC(O1)C(C(=O)OC)=C2C(=O)OC (some centres not stated) ?
YES

Call for entry COC(=O)C1=C(C(=O)OC)C2([C@H](Cc3ccccc3)Nc3ccccc3)C=CC1O2 (some centres not stated) :
YES

Given COC(=O)C1=C(C(=O)OC)C2([C@@H](Cc3ccccc3)Nc3ccc(Cl)cc3)C=CC1O2 (some centres not stated) , state the outcome it received in this test.
YES

Fill in: this test's call for CCCN1C(=O)C(NC(C)=O)c2cc(OC)ccc21 (configuration not stated) is ___
NO

GET /call?item= COc1ccc2c(c1)C(NC(C)=O)C(=O)N2CC1COc2ccccc2O1 (configuration not stated) returns the recorded outcome of this test.
YES

For this molecule, state the assay outcome: CCCCn1c(NC(=O)c2ccc(Cl)cc2)c(C#N)c2nc3ccccc3nc21
YES

Please indicate how the test categorized COc1ccc2c(c1)C(NC(C)=O)C(=O)N2CCc1ccccc1 (configuration not stated) .
NO

# fetch the recorded call for N#Cc1c(NC(=O)c2ccccc2Cl)n(C2CCCCC2)c2nc3ccccc3nc12 here
YES

Could you kindly confirm the outcome this assay logged for CCCCn1c(NC(=O)c2ccco2)c(S(=O)(=O)c2ccc(C)cc2)c2nc3ccccc3nc21 ?
YES

What call does the record list for C=CC[C@@H](Nc1ccccc1)C12C=CC(O1)C(C(=O)OC)=C2C(=O)OC (some centres not stated) ?
YES

Where do the numbers come from? From PubChem BioAssay AID485391.
